- target entity: various mutants of kinase EGFR (BaF3 cell lines stably transfected with kinase) (Homo sapiens, UniProt P00533, L858R/T790M)
- Construct: expressed in transfected cells; host or cells: BaF3
- Sequence (P00533 25-1210 T790M/L858R): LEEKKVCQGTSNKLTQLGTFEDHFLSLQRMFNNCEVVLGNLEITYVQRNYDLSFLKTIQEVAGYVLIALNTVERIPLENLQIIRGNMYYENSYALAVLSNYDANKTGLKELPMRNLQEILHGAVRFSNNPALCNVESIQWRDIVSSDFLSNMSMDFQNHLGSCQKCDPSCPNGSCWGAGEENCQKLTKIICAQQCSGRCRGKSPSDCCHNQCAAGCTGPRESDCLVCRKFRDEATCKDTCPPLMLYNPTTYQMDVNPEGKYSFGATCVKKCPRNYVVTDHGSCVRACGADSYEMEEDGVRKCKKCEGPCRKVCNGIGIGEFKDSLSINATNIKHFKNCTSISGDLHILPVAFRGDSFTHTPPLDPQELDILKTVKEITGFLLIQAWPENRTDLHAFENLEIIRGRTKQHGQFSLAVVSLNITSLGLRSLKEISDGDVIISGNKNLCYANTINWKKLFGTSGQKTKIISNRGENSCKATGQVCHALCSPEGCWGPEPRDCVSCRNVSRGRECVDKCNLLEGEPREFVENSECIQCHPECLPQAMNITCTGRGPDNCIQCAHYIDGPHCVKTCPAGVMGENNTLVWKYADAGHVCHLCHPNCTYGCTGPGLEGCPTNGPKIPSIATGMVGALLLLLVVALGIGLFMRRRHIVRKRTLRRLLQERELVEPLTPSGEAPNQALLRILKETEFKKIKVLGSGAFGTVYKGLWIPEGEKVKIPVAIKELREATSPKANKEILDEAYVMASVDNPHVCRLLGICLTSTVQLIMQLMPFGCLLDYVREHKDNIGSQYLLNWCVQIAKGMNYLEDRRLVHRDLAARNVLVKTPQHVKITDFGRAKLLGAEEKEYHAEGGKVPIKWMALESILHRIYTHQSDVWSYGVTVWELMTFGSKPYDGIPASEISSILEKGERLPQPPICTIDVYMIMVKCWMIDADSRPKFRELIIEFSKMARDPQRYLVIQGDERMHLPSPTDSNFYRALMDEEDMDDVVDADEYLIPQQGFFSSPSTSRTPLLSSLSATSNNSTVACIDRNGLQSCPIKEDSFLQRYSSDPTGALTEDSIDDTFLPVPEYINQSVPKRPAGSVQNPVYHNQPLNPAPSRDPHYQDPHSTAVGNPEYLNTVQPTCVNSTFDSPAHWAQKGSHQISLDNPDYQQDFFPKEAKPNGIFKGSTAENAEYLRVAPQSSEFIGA
- assay notes: Growth inhibitory activity of compounds on BaF3 cell lines stably transfected with kinase (MTS, 48 h)
- Type: cell-based
- reported conditions: BaF3 cell line stably transfected with EGFR L858R/T790M, read-out: L858R/ T790M growth inhibitory activity IC50
Consider the following molecules; for each one, report its IC50.

Kindly note the recorded IC50 for COc1cc(N2CCC(N3CCN(C)CC3)CC2)ccc1Nc1ncc(C)c(Nc2ccc3nccnc3c2N(C)S(C)(=O)=O)n1 [Compound I-313] , which is 50 to 500 nM

Kindly note the recorded IC50 for Cc1cc(Nc2ncc(Br)c(Nc3ccc4nccnc4c3N(C)S(C)(=O)=O)n2)nn1C [Compound I-385] , which is 500 to 2500 nM

Kindly note the recorded IC50 for CCc1cc(Nc2ncc(Br)c(Nc3ccc4nccnc4c3NS(C)(=O)=O)n2)c(OC)cc1N1CCC(N(C)C)C1 (stereo not shown) [Compound I-412] , which is ≤ 50 nM

Kindly note the recorded IC50 for CCc1cc(Nc2nc(Nc3ccc4nccnc4c3N(C)S(C)(=O)=O)c3[nH]ccc3n2)c(OC)nc1N1CCC(N2CCN(C)CC2)CC1 [II-1-21] , which is 500 to 2500 nM

Kindly note the recorded IC50 for CCc1cc(Nc2ncc(Cl)c(Nc3ccc4nccnc4c3N(C)S(C)(=O)=O)n2)c(OC)cc1C(=O)N1CCC(N2CCN(C)CC2)CC1 [Compound I-358] , which is 50 to 500 nM

Kindly note the recorded IC50 for COc1ccc(N2CCC(O)CC2)cc1Nc1ncc(Cl)c(Nc2ccc3nccnc3c2N(C)S(=O)(=O)C(F)(F)F)n1 [Compound I-370] , which is 50 to 500 nM

Kindly note the recorded IC50 for COc1ccc(N2CCC(O)CC2)cc1Nc1ncc(Cl)c(Nc2ccc3nccnc3c2N(C2CC2)S(C)(=O)=O)n1 [Compound I-379] , which is ≤ 50 nM

Kindly note the recorded IC50 for COc1cc(N2CCC(N3CCN(C)CC3)CC2)c(C)cc1Nc1ncc(OC)c(Nc2ccc3nccnc3c2N(C)S(C)(=O)=O)n1 [Compound I-332] , which is ≤ 50 nM

Kindly note the recorded IC50 for CCc1cc(Nc2ncc(CC)c(Nc3ccc4nccnc4c3N(C)S(C)(=O)=O)n2)c(OC)cc1N1CCC(N(C)C)C1 (stereo not shown) [Compound I-324] , which is ≤ 50 nM

Kindly note the recorded IC50 for CCN(c1c(Nc2nc(Nc3cc(N4CCC(O)CC4)ccc3OC)ncc2Cl)ccc2nccnc12)S(C)(=O)=O [Compound I-377] , which is ≤ 50 nM

Kindly note the recorded IC50 for CCc1cc(Nc2ncc(Br)c(Nc3ccc4nccnc4c3NS(C)(=O)=O)n2)c(OC)cc1N1CCC(N2CCN(C)CC2)CC1 [Compound I-403] , which is ≤ 50 nM

Kindly note the recorded IC50 for COc1cc(N2CCC(N3CCN(C)CC3)CC2)c(CC2CC2)cc1Nc1ncc(Br)c(Nc2ccc3nccnc3c2NS(C)(=O)=O)n1 [Compound I-408] , which is ≤ 50 nM

Kindly note the recorded IC50 for CN1CCN(C2CCN(c3ccc(Nc4ncc(Cl)c(Nc5ccc6nccnc6c5N(C)S(C)(=O)=O)n4)c(F)c3F)CC2)CC1 [Compound I-356] , which is ≤ 50 nM

###

- target entity: various mutants of kinase EGFR (BaF3 cell lines stably transfected with kinase) (Homo sapiens, UniProt P00533, L858R)
- Construct: expressed in transfected cells; host or cells: BaF3
- Sequence (P00533 25-1210 L858R): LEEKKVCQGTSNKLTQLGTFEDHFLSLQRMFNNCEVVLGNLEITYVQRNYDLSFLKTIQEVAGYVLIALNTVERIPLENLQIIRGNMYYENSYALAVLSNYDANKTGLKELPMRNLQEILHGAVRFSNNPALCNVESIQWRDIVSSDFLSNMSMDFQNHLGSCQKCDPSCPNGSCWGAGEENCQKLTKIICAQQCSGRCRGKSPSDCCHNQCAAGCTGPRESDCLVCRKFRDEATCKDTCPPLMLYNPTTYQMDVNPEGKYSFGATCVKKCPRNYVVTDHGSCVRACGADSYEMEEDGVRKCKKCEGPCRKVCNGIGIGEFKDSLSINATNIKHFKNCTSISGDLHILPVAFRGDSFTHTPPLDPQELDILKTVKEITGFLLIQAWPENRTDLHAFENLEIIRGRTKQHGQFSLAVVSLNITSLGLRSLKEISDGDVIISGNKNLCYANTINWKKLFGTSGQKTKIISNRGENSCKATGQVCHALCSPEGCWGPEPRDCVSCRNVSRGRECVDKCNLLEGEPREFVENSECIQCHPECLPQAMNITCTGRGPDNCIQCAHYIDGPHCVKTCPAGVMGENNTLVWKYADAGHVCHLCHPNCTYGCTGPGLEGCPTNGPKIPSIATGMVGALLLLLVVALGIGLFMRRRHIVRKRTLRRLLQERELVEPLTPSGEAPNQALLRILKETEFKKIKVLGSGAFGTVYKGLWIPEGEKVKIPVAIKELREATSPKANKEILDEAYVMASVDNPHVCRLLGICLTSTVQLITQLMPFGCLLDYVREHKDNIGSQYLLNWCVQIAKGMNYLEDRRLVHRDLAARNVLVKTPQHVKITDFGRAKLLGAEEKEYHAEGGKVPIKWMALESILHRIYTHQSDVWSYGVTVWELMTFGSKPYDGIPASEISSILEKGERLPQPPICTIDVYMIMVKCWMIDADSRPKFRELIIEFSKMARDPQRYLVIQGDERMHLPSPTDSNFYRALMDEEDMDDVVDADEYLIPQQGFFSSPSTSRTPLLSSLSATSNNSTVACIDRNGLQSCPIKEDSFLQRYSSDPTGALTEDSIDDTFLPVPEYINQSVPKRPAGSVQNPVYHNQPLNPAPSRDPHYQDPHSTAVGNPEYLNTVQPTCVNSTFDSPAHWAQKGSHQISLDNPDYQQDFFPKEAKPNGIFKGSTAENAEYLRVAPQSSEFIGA
- assay notes: Growth inhibitory activity of compounds on BaF3 cell lines stably transfected with kinase (MTS, 48 h)
- Assay type: cell-based
- reported conditions: BaF3 cell line stably transfected with EGFR L858R, read-out: L858R growth inhibitory activity IC50
value type: IC50

Kindly note the recorded IC50 for COc1cc(N2CCC(N3CCN(C)CC3)CC2)c(C)cc1Nc1nccc(Nc2ccc3nccnc3c2N(C)S(C)(=O)=O)n1 , which is ≤ 50 nM

Kindly note the recorded IC50 for C=Cc1cc(Nc2nc(Nc3ccc4nccnc4c3N(C)S(C)(=O)=O)c3occc3n2)c(OC(F)(F)F)cc1N1CCC(N2CCN(C)CC2)CC1 , which is 50 to 500 nM

Kindly note the recorded IC50 for CCc1cnc(Nc2cc(N3CCC(O)CC3)ccc2OC)nc1Nc1ccc2nccnc2c1N(C)S(C)(=O)=O , which is ≤ 50 nM

Kindly note the recorded IC50 for CCc1cc(Nc2nc(Nc3ccc4nccnc4c3N(C)S(C)(=O)=O)c3[nH]ccc3n2)c(OC)cc1N1CCC(N(C)C)C1 (stereo not drawn) , which is 500 to 2500 nM

Kindly note the recorded IC50 for CCc1cc(Nc2nc(Nc3ccc4nccnc4c3N(C)S(C)(=O)=O)c3sccc3n2)c(OC)cc1N1CCN(C)CC1 , which is 500 to 2500 nM

Kindly note the recorded IC50 for CCc1cc(Nc2ncc(OC)c(Nc3ccc4nccnc4c3N(C)S(C)(=O)=O)n2)c(OC)nc1N1CCC(N2CCN(C)CC2)CC1 , which is ≤ 50 nM

###

- target entity: various mutants of kinase EGFR (BaF3 cell lines stably transfected with kinase) (Homo sapiens, UniProt P00533, T790M/C797S, form not given)
- Construct: other: BaF3 cells stably transfected with EGFR Δ19Del/T790M/C797S; MTS, 48; other: BaF3 cell line stably transfected with EGFR Δ19Del/T790M/C7
- Sequence (P00533 with tags, fused parts or gaps DEL746-750/T790M/C797S, form open): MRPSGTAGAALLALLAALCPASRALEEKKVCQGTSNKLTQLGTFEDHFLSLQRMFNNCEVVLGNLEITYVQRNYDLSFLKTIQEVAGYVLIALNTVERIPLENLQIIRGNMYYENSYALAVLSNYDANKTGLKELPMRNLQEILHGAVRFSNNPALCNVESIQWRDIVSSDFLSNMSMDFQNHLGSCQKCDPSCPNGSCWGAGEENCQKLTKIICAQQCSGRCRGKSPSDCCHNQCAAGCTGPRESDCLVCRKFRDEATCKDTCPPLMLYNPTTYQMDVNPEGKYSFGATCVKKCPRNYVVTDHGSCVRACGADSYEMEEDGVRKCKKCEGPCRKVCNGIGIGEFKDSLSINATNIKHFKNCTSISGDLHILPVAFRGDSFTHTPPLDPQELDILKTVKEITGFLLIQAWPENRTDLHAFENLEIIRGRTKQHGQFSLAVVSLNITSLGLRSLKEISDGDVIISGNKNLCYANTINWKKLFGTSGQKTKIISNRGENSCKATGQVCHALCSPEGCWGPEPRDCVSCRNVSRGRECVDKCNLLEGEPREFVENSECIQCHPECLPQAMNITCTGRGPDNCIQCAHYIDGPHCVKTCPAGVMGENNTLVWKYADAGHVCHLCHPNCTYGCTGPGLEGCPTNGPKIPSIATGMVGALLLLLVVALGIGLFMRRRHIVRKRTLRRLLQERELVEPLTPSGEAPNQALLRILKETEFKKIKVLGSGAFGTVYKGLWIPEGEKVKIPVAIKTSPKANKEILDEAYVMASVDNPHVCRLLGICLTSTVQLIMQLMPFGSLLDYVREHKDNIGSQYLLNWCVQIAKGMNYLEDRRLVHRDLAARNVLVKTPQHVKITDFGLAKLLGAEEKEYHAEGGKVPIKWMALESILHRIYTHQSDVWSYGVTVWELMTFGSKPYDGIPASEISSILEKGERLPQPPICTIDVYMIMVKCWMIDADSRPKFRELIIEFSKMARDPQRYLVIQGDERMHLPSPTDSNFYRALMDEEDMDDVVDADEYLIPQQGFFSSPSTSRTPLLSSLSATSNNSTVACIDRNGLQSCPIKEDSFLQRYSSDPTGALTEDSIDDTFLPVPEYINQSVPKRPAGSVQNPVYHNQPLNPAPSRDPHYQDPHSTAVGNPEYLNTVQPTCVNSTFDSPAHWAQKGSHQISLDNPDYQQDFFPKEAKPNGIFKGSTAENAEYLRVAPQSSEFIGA
- assay notes: Growth inhibitory activity of compounds on BaF3 cell lines stably transfected with kinase (MTS, 48 h)
- Assay type: cell-based
- reported conditions: BaF3 cell line stably transfected with EGFR Δ19Del/T790M/C797S, read-out: Δ19Del/T790M/ C797S growth inhibitory activity IC50
value type: IC50

Kindly note the recorded IC50 for COc1cc(N2CCC(N3CCN(C)CC3)CC2)c(C)cc1Nc1ncc(Br)c(Nc2ccc3nccnc3c2NS(C)(=O)=O)n1 [Compound I-402] , which is ≤ 50 nM

Kindly note the recorded IC50 for CCc1cc(Nc2ncc(Br)c(Nc3ccc4nccnc4c3NS(C)(=O)=O)n2)ccc1N1CCC(N2CCN(C)CC2)CC1 [Compound I-409] , which is ≤ 50 nM

Kindly note the recorded IC50 for Cc1cc(Nc2ncc(Br)c(Nc3ccc4nccnc4c3N(C)S(C)(=O)=O)n2)nn1C [Compound I-385] , which is 50 to 500 nM

Kindly note the recorded IC50 for COc1ccc(N2CCC(O)CC2)cc1Nc1ncc(F)c(Nc2ccc3nccnc3c2N(C)S(=O)(=O)C2CC2)n1 [Compound I-373] , which is 50 to 500 nM

###

Consider the following compounds; for each one, report its pIC50.
- target entity: various mutants of kinase EGFR (BaF3 cell lines stably transfected with kinase) (Homo sapiens, UniProt P00533)
- Construct: other: BaF3 cells stably transfected with EGFR Δ19Del; MTS, 48 h; other: BaF3 cell line stably transfected with EGFR Δ19Del
- Sequence (P00533 with tags, fused parts or gaps DEL746-750): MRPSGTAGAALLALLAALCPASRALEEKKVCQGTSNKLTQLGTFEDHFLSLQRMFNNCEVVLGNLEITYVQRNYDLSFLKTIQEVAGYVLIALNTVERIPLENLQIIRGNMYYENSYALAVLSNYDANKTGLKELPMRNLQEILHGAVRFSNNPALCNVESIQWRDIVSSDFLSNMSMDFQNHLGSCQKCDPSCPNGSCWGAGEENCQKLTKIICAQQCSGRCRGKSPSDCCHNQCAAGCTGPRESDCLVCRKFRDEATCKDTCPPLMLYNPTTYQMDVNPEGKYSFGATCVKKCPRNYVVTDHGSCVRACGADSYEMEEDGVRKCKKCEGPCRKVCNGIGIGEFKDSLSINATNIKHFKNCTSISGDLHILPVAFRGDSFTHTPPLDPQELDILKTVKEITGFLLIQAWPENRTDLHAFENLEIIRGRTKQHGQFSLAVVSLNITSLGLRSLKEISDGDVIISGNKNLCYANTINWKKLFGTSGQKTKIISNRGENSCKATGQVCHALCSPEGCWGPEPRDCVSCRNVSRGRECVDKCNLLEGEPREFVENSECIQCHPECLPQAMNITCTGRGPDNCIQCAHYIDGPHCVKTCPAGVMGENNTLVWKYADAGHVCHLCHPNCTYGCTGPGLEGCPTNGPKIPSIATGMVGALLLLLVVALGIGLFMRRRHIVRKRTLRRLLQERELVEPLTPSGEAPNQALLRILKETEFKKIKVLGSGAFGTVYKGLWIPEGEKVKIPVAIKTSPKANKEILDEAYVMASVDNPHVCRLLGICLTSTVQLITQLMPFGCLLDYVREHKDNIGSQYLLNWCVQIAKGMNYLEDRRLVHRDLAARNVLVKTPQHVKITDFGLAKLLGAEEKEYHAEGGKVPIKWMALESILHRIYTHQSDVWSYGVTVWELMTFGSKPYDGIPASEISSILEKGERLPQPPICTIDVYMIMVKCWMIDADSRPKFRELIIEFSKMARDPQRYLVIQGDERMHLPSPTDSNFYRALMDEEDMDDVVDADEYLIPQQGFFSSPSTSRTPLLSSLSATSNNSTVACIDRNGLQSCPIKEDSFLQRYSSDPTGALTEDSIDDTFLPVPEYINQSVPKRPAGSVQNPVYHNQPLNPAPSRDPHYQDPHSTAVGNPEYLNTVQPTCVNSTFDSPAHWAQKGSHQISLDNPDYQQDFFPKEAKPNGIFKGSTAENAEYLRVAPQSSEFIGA
- assay notes: Growth inhibitory activity of compounds on BaF3 cell lines stably transfected with kinase (MTS, 48 h)
- Assay type: cell-based
- reported conditions: BaF3 cell line stably transfected with EGFR Δ19Del, read-out: Δ19Del growth inhibitory activity IC50
pIC50: −log10 of the molar value.

Kindly note the recorded pIC50 for CCc1cc(Nc2ncc(Br)c(Nc3ccc4nccnc4c3NS(C)(=O)=O)n2)c(OC)cc1C(=O)N1CCC(N2CCN(C)CC2)CC1 , which is 5.60 to 6.30

Kindly note the recorded pIC50 for CCc1cc(Nc2nc(Nc3ccc4nccnc4c3N(C)S(C)(=O)=O)c3occc3n2)c(OC)cc1N1CCC(N2CCN(C)CC2)CC1 , which is 6.30 to 7.30

Kindly note the recorded pIC50 for COc1cc(N2CCN(C)CC2)c(C)cc1Nc1nc(Nc2ccc3nccnc3c2N(C)S(C)(=O)=O)c2[nH]ccc2n1 , which is 5.60 to 6.30

Kindly note the recorded pIC50 for CCc1cc(Nc2nc(Nc3ccc4nccnc4c3N(C)S(C)(=O)=O)c3[nH]ccc3n2)c(OC)nc1N1CCC(N2CCN(C)CC2)CC1 , which is 6.30 to 7.30

Kindly note the recorded pIC50 for CCN(c1c(Nc2nc(Nc3cc(N4CCC(O)CC4)ccc3OC)ncc2Br)ccc2nccnc12)S(C)(=O)=O , which is 6.30 to 7.30

Kindly note the recorded pIC50 for COc1ccc(N2CCC(O)CC2)cc1Nc1ncc(Br)c(Nc2ccc3nccnc3c2N(C)S(=O)(=O)C2CC2)n1 , which is ≥ 7.30

###

- target entity: various mutants of kinase EGFR (BaF3 cell lines stably transfected with kinase) (Homo sapiens, UniProt P00533)
- Construct: other: BaF3 cells stably transfected with EGFR Δ19Del; MTS, 48 h; other: BaF3 cell line stably transfected with EGFR Δ19Del
- assay notes: Growth inhibitory activity of compounds on BaF3 cell lines stably transfected with kinase (MTS, 48 h)
- Assay type: cell-based
- reported conditions: BaF3 cell line stably transfected with EGFR Δ19Del, read-out: Δ19Del growth inhibitory activity IC50
pIC50: −log10 of the molar value.
Consider the following molecules; for each one, report its pIC50.

Kindly note the recorded pIC50 for COc1cc(N2CCC(N3CCN(C)CC3)CC2)c(CC2CC2)cc1Nc1nc(Nc2ccc3nccnc3c2N(C)S(C)(=O)=O)c2occc2n1 [II-1-43] , which is 5.60 to 6.30

Kindly note the recorded pIC50 for CCc1cc(Nc2ncc(Br)c(Nc3ccc4nccnc4c3N(C)S(C)(=O)=O)n2)c(OC)cc1N(C)CCN(C)C [Compound I-392] , which is 6.30 to 7.30

Kindly note the recorded pIC50 for COc1cc(N2CCC(N3CCN(C)CC3)CC2)ccc1Nc1nc(Nc2ccc3nccnc3c2N(C)S(C)(=O)=O)c2occc2n1 [II-1-24] , which is 5.60 to 6.30

Kindly note the recorded pIC50 for CCc1cc(Nc2ncc(Br)c(Nc3ccc4nccnc4c3NS(C)(=O)=O)n2)c(OC)cc1N1CCC(N(C)C)CC1 [Compound I-410] , which is ≥ 7.30

Kindly note the recorded pIC50 for COc1cc(N2CCN(C)CC2)c(C)cc1Nc1nc(Nc2ccc3nccnc3c2N(C)S(C)(=O)=O)c2cc[nH]c2n1 [II-2-12] , which is 6.30 to 7.30

Kindly note the recorded pIC50 for CCn1cc(Nc2ncc(Br)c(Nc3ccc4nccnc4c3N(C)S(C)(=O)=O)n2)c(C)n1 [Compound I-387] , which is 5.60 to 6.30

Kindly note the recorded pIC50 for COc1cc(N2CCN(C)CC2)c(C)cc1Nc1nc(Nc2ccc3nccnc3c2N(C)S(C)(=O)=O)c2sccc2n1 [II-1-12] , which is 5.60 to 6.30

Kindly note the recorded pIC50 for Cc1cc(Nc2ncc(Br)c(Nc3ccc4nccnc4c3N(C)S(C)(=O)=O)n2)nn1C [Compound I-385] , which is 5.60 to 6.30

Kindly note the recorded pIC50 for CN(c1c(Nc2nc(Nc3cccc(N4CCC(N5CCCC5)CC4)c3)ncc2Br)ccc2nccnc12)S(C)(=O)=O [Compound I-381] , which is 6.30 to 7.30

Kindly note the recorded pIC50 for CN1CCN(C2CCN(c3ccc(Nc4nc(Nc5ccc6nccnc6c5N(C)S(C)(=O)=O)c5occc5n4)c(OC(F)(F)F)c3)CC2)CC1 [II-1-40] , which is 5.60 to 6.30

Kindly note the recorded pIC50 for COc1cc(N2CCC(N3CCN(C)CC3)CC2)c(Cc2ccccc2)cc1Nc1nc(Nc2ccc3nccnc3c2N(C)S(C)(=O)=O)c2occc2n1 [II-1-44] , which is 5.60 to 6.30

Kindly note the recorded pIC50 for COc1cc(N2CCC(N3CCN(C)CC3)CC2)ccc1Nc1nc(Nc2ccc3nccnc3c2N(C)S(C)(=O)=O)c2cc[nH]c2n1 [II-2-22] , which is 6.30 to 7.30

Kindly note the recorded pIC50 for CCc1cc(Nc2ncc(Br)c(Nc3ccc4nccnc4c3N(C)S(C)(=O)=O)n2)c(OC)cc1N1CCN(C2CN(C)C2)CC1 [Compound I-398] , which is ≥ 7.30

Kindly note the recorded pIC50 for CCc1cc(Nc2ncc(Br)c(Nc3ccc4nccnc4c3NS(=O)(=O)C(C)C)n2)c(OC)cc1N1CCC(N2CCN(C)CC2)CC1 [Compound I-415] , which is ≥ 7.30

Kindly note the recorded pIC50 for CCc1cc(Nc2ncc(Br)c(Nc3ccc4nccnc4c3N(C)S(C)(=O)=O)n2)c(OC)cc1NCCO [Compound I-390] , which is 5.60 to 6.30

Kindly note the recorded pIC50 for CCc1cnc(Nc2cc(CC)c(N3CCC(N4CCN(C)CC4)CC3)nc2OC)nc1Nc1ccc2nccnc2c1N(C)S(C)(=O)=O [Compound I-320] , which is ≥ 7.30

Values compiled from patent US20230310428A1.
